// provenance: patent US10392404B2

For each entry below, report its IC50 value.
# target_under_test: b-Raf (V600E) (Homo sapiens, UniProt P15056, V600E)
# Sequence (P15056 whole entry V600E): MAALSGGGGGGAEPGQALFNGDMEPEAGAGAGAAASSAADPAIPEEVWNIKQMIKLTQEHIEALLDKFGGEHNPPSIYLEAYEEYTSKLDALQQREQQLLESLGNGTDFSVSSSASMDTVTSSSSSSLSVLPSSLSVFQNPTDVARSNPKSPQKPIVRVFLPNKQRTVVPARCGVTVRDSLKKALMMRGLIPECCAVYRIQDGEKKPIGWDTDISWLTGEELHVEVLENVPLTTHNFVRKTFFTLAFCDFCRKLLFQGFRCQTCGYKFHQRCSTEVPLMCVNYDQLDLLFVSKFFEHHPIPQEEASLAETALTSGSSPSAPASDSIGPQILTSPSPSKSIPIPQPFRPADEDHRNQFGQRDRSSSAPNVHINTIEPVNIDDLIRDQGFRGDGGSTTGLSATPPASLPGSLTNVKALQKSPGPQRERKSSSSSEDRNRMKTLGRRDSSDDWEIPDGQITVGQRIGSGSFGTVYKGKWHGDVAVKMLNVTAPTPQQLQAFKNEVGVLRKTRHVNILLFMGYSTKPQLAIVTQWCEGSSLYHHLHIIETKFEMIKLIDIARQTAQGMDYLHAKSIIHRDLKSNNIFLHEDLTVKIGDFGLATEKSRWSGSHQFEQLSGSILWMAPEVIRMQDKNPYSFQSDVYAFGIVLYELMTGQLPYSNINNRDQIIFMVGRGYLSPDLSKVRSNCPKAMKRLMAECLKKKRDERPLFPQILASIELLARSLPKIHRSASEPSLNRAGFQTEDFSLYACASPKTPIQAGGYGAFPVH
# experiment_notes: In vitro Raf activity determination (Alpha Screen, biotinylated kinase-dead MEK1 substrate), B-Raf
# measurement_context: b-Raf (V600E) approximately 4 pM; ATP 10 μM; pre-incubation 60 minutes; reaction 3 hours at room temperature
Answers are plain numbers, in nM.

Below, each entry is followed by its recorded IC50 result.
compound: Cc1ncc(NC(=O)c2ccnc(C(C)(C)O)c2)cc1-c1cnc(C2CCOCC2)c(C#N)c1 [Example 167]
IC50 / nM: 33
--
compound: COCCNc1ncc(-c2cc(NC(=O)c3cc(C(F)(F)F)ccn3)cnc2C)cc1C#N [Example 229]
IC50 / nM: 5
--
compound: Cc1ncc(NC(=O)c2cnnc(C3CC3)c2)cc1-c1cnc(NC2CCOCC2)c(C#N)c1 [Example 200]
IC50 / nM: 15.2
--
compound: Cc1ccc(NC(=O)c2ccnc(C(F)(F)F)c2)cc1-c1cnc(-n2ccc(=O)cc2)c(C#N)c1 [Example 119]
IC50 / nM: 12.2
--
compound: Cc1ccc(NC(=O)c2cnnc(C(F)(F)F)c2)cc1-c1cnc(N2CCOCC2)c(C#N)c1 [Example 208]
IC50 / nM: 0.397
--
compound: Cc1ccc(NC(=O)c2ccnc(C(C)(C)C#N)c2)cc1-c1cnc(N2CC(C)(O)C2)c(C#N)c1 [Example 29]
IC50 / nM: 4.05
--
compound: Cc1ccc(NC(=O)c2cn(C(C)C)nc2C)cc1-c1cnc(N(C)C)c(C#N)c1 [Example 253]
IC50 / nM: 16.5
--
compound: Cc1ncc(NC(=O)c2ccnc(C(C)(C)C#N)c2)cc1-c1cnc(N2CCOC(C)(C)C2)c(C#N)c1 [Example 89]
IC50 / nM: 3.42
--
compound: Cc1ccc(NC(=O)c2ccccc2)cc1-c1cncc(C#N)c1 [Example 149]
IC50 / nM: 15100

Turning now to a further compound:
Report measured IC50; entry is Cc1ncc(NC(=O)c2ccnc(C(C)(C)C#N)c2)cc1-c1cnc(N2C[C@H]3CC[C@@H](C2)O3)c(C#N)c1 [Example 88]
2.04

* * *

For each entry below, report its IC50 value.
# target_under_test: b-Raf (V600E) (Homo sapiens, UniProt P15056, V600E)
# Construct: made in house
# experiment_notes: In vitro Raf activity determination (Alpha Screen, biotinylated kinase-dead MEK1 substrate), B-Raf
# Type: biochemical
# measurement_context: b-Raf (V600E) approximately 4 pM; ATP 10 μM; pre-incubation 60 minutes; reaction 3 hours at room temperature
Give the number first and the unit second.

Each molecule below has a reported value. Please supply its IC50.
1. Cc1ccc(NC(=O)c2cc(C(C)(C)C#N)ccn2)cc1-c1cnc(N2CCOCC2)c(C#N)c1
2. Cc1ccc(NC(=O)c2cc(C(C)(C)F)ccn2)cc1-c1cnc(N2CC(C)(O)C2)c(C#N)c1
3. Cc1ncc(NC(=O)c2cc(C(C)C)on2)cc1-c1cnc(N(C)C)c(C#N)c1
4. Cc1ccc(NC(=O)c2cccc(C(F)(F)F)c2)cc1-c1cnc(Cl)c(C#N)c1
5. Cc1ncc(NC(=O)c2cnnc(C(F)(F)F)c2)cc1-c1cnc(N2CC(C)(O)C2)c(C#N)c1
6. COCCNc1ncc(-c2cc(NC(=O)c3ccnc(C4(C#N)CC4)c3)ccc2C)cc1C#N
7. Cc1ncc(NC(=O)c2ccnc(C(C)(C)C#N)c2)cc1-c1cnc(N2[C@@H]3CC[C@H]2COC3)c(C#N)c1

1: 1.34 nM; 2: 7.18 nM; 3: 6.15 nM; 4: 3.4 nM; 5: 112 nM; 6: 0.94 nM; 7: 3.62 nM

Each molecule below has a reported value. Please supply its IC50.
1. Cc1ccc(NC(=O)c2ccnc(C(F)(F)F)c2)cc1-c1cnc(NC2CCOCC2)c(C#N)c1
2. Cc1ccc(NC(=O)c2ccnc(C(C)(C)O)c2)cc1-c1cnc(C2CCOCC2)c(C#N)c1

["0.509 nM", "3.61 nM"]

* * *

For each entry below, report its IC50 value.
# target_under_test: b-Raf (V600E) (Homo sapiens, UniProt P15056, V600E)
# experiment_notes: In vitro Raf activity determination (Alpha Screen, biotinylated kinase-dead MEK1 substrate), B-Raf
# measurement_context: b-Raf (V600E) approximately 4 pM; ATP 10 μM; pre-incubation 60 minutes; reaction 3 hours at room temperature
# Excerpt: Full length MEK1 with an inactivating K97R ATP binding site mutation is utilized as a RAF substrate. The MEK1 cDNA was subcloned with an N-terminal (his)6 tag into a vector for E. Coli expression. The MEK1 substrate was purified from E. Coli lysate by nickel affinity chromatography followed by anion exchange. The final MEK1 preparation was biotinylated (Pierce EZ-Link Sulfo-NHS-LC-Biotin) and concentrated. […]

Below, each entry is followed by its recorded IC50 result.
molecule_smiles: Cc1ncc(NC(=O)c2cccc(C(F)F)c2)cc1-c1cnc(NC2CCOCC2)c(C#N)c1
IC50: 1.09 nM
//
molecule_smiles: Cc1ncc(NC(=O)c2ccnc(C(C)(C)C#N)c2)cc1-c1cnc(-n2ccccc2=O)c(C#N)c1
IC50: 285 nM

Turning now to a further compound:
Report measured IC50; entry is Cc1ccc(NC(=O)c2cnnc(C(C)(C)C#N)c2)cc1-c1cnc(NC2CCOCC2)c(C#N)c1
1.45 nM

* * *

For each entry below, report its pIC50 value.
# target_under_test: C-RAF (Homo sapiens, UniProt P04049, Y340E/Y341E)
# Construct: His tag (implied by nickel chromatography) (cleaved yes); StrepII tag (cleaved yes); MEK1 substrate from E. coli
# Sequence (P04049 whole entry Y340E/Y341E): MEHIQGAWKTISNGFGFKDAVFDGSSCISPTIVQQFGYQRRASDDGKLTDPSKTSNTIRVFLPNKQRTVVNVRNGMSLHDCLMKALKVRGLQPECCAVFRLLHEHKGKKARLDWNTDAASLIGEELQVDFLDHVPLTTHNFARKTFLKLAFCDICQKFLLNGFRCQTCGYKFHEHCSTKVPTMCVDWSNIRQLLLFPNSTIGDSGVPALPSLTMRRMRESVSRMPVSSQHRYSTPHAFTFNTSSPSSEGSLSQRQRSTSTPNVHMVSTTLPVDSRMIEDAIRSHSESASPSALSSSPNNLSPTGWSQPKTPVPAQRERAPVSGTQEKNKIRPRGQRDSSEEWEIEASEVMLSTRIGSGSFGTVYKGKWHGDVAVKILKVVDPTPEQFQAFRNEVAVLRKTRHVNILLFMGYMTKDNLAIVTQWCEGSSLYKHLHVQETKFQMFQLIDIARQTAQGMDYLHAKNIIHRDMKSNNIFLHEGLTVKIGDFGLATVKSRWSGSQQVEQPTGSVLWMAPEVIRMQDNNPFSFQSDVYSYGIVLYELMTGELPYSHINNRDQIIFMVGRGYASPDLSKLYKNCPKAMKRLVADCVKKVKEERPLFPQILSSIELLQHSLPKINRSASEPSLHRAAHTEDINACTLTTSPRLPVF
# Sequence (P63104 whole entry partner): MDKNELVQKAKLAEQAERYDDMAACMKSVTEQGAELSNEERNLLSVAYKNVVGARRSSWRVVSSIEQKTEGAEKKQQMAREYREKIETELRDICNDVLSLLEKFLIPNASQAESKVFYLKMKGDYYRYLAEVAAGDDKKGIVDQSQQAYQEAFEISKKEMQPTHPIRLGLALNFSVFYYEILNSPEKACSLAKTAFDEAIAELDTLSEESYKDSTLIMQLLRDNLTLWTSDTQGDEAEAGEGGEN
# experiment_notes: In vitro Raf activity determination (Alpha Screen, biotinylated kinase-dead MEK1 substrate), C-Raf
# measurement_context: c-Raf approximately 4 nM; ATP 1 μM; pre-incubation 60 minutes; reaction 1 hour at room temperature
One number for each entry, as −log10 of the molar value.

Below, each entry is followed by its recorded pIC50 result.
compound: Cc1ncc(NC(=O)c2ccnc(S(C)(=O)=O)c2)cc1-c1cnc(N(C)C)c(C#N)c1 [Example 271]
target_under_test: C-RAF (Homo sapiens, UniProt P04049, Y340E/Y341E)
pIC50: 8.94
//
compound: Cc1ncc(NC(=O)c2ccnc(C(C)(C)C#N)c2)cc1-c1cnc(NC(C)C)c(C#N)c1 [Example 28]
target_under_test: C-RAF (Homo sapiens, UniProt P04049, Y340E/Y341E)
pIC50: 8.59
//
compound: Cc1ncc(NC(=O)c2ccnc(C(C)(C)C#N)c2)cc1-c1cnc(N2CCNCC2)c(C#N)c1 [Example 71]
target_under_test: C-RAF (Homo sapiens, UniProt P04049, Y340E/Y341E)
pIC50: 8.70
//
compound: Cc1ncc(NC(=O)c2cc(C(C)(F)F)ccn2)cc1-c1cnc(N2CC(C)(O)C2)c(C#N)c1 [Example 239]
target_under_test: C-RAF (Homo sapiens, UniProt P04049, Y340E/Y341E)
pIC50: 9.15

Turning now to a further compound:
Report measured pIC50; entry is Cc1ccc(C(=O)Nc2cccc(C(F)(F)F)c2)cc1-c1cnc(N)c(C#N)c1C [Example 11]
9.22

* * *

For each entry below, report its pIC50 value.
# target_under_test: C-RAF (Homo sapiens, UniProt P04049, Y340E/Y341E)
# Construct: His tag (implied by nickel chromatography) (cleaved yes); StrepII tag (cleaved yes); MEK1 substrate from E. coli
# experiment_notes: In vitro Raf activity determination (Alpha Screen, biotinylated kinase-dead MEK1 substrate), C-Raf
# measurement_context: c-Raf approximately 4 nM; ATP 1 μM; pre-incubation 60 minutes; reaction 1 hour at room temperature
Numbers only, as −log10 of the molar value.

molecule_smiles: Cc1ccc(NC(=O)c2cc(C(C)(F)F)ccn2)cc1-c1cnc(N2CC(C)(O)C2)c(C#N)c1
pIC50: 9.28

Each compound below has a reported value. Please supply its pIC50.
1. Cc1ncc(NC(=O)c2ccnc(C(C)(C)C#N)c2)cc1-c1cnc(N2CCO[C@@H](C)C2)c(C#N)c1
2. Cc1ncc(NC(=O)c2ccnc(C(C)(C)C#N)c2)cc1-c1cnc(OC2COC2)c(C#N)c1

8.79
8.22

* * *

For each entry below, report its pIC50 value.
# target_under_test: b-Raf (V600E) (Homo sapiens, UniProt P15056, V600E)
# experiment_notes: In vitro Raf activity determination (Alpha Screen, biotinylated kinase-dead MEK1 substrate), B-Raf
# measurement_context: b-Raf (V600E) approximately 4 pM; ATP 10 μM; pre-incubation 60 minutes; reaction 3 hours at room temperature
Give bare numbers, as −log10 of the molar value.

molecule_smiles: COCCNc1ncc(-c2cc(NC(=O)c3cc(C(F)(F)F)ccn3)ccc2C)cc1C#N
target_under_test: b-Raf (V600E) (Homo sapiens, UniProt P15056, V600E)
pIC50: 8.70

Each molecule below has a reported value. Please supply its pIC50.
1. Cc1ccc(NC(=O)c2cc(C(C)(C)N)cc(C(F)(F)F)c2)cc1-c1cnc(-c2cnn(C)c2)c(C#N)c1
2. Cc1ccc(NC(=O)c2ccnc(C(C)(C)C#N)c2)cc1-c1cnc(Cl)c(C#N)c1
3. Cc1ccc(NC(=O)c2ccnc(C(F)(F)F)c2)cc1-c1cnc(N2CC(C)(O)C2)c(C#N)c1
4. Cc1ccc(NC(=O)c2cccc(S(C)(=O)=O)c2)cc1-c1cnc(N(C)C)c(C#N)c1

1. 8.40
2. 8.24
3. 8.94
4. 9.53

Each molecule below has a reported value. Please supply its pIC50.
1. COCCNc1ncc(-c2cc(NC(=O)c3ccnc(C(C)(C)O)c3)ccc2C)cc1C#N
2. Cc1ncc(NC(=O)c2ccnc(C(C)(C)C#N)c2)cc1-c1cnc(-c2c(C)nn(C)c2C)c(C#N)c1
3. Cc1ncc(NC(=O)c2ccnc(C(F)(F)F)c2)cc1-c1cnc(N2CC(O)C2)c(C#N)c1
4. CNc1ncc(-c2cc(C(=O)Nc3cccc(C(F)(F)F)c3)ccc2C)cc1C#N
5. Cc1ncc(NC(=O)c2cccc(C(F)(F)F)n2)cc1-c1cnc(C2CCOCC2)c(C#N)c1
6. Cc1ccc(NC(=O)c2ccnc(C3CC3)c2)cc1-c1cnc(N2CC(C)(O)C2)c(C#N)c1
7. Cc1ccc(NC(=O)c2cc(C(F)(F)F)ccn2)cc1-c1cnc(NC2CCOCC2)c(C#N)c1

1. 8.38
2. 7.49
3. 8.59
4. 8.35
5. 7.25
6. 8.88
7. 8.70

Each molecule below has a reported value. Please supply its pIC50.
1. Cc1ncc(NC(=O)c2cccc(C(F)(F)F)c2)cc1-c1cnc(N2CCOCC2)c(C#N)c1
2. Cc1ccc(NC(=O)c2ccnc(C3(C#N)CC3)c2)cc1-c1cnc(N2CCNCC2)c(C#N)c1
3. Cc1ccc(NC(=O)c2ccnc(C(C)(C)C#N)c2)cc1-c1cnc(N)c(C#N)c1
4. Cc1ncc(NC(=O)c2cc(C(C)(F)F)ccn2)cc1-c1cnc(N2CCOCC2)c(C#N)c1
5. Cc1ccc(NC(=O)c2ccnc(C(C)(C)C#N)c2)cc1-c1cnc(NC2CC2)c(C#N)c1

1: 9.07; 2: 9.25; 3: 8.51; 4: 8.65; 5: 8.67

Each molecule below has a reported value. Please supply its pIC50.
1. Cc1ccc(NC(=O)c2ccnc(C(F)(F)F)c2)cc1-c1cnc(C(C)C)c(C#N)c1
2. Cc1ccc(NC(=O)c2ccnc(C(C)(C)O)c2)cc1-c1cnc(N(C)C)c(C#N)c1

1. 9.06
2. 8.82
